# Tested on: HCT116
# Assay overview: viability inhibition vs untreated; higher = more cytotoxic
# Test context: genotype: MTA1-KO; 16 nM; 72 h
Where a name gives a salt, the structure may show the parent alone.
Experimental readout: viability inhibition (%)
# value in %; strip the unit string

Check out these entries, answers already filled in.
Query: Suppose we examine the compound Cn1cc(C[C@@H](N)C(=O)O)c2ccccc21 [Indoximod] ; what viability inhibition value has been reported?
Result: -22.6

Query: Suppose we examine the compound CCCCCCCCCCC[C@@H](C[C@@H]1OC(=O)[C@H]1CCCCCC)OC(=O)[C@H](CC(C)C)NC=O [Orlistat] ; what viability inhibition value has been reported?
Result: -6.57

Query: Suppose we examine the compound CNCc1cc(-c2ccccc2F)n(S(=O)(=O)c2cccnc2)c1 [Vonoprazan fumarate] ; what viability inhibition value has been reported?
Result: 12

Query: Suppose we examine the compound O=C(O)CNC(=O)c1c(O)c2ccccc2n(Cc2ccccc2)c1=O [IOX 2] ; what viability inhibition value has been reported?
Result: 15.5

Query: Suppose we examine the compound Nc1cccc(S(=O)(=O)N2CCCN(S(=O)(=O)c3ccc4c(c3)OCCO4)CC2)c1 [DASA58] ; what viability inhibition value has been reported?
Result: -0.728

Query: Suppose we examine the compound COC(=O)N1CCN(Cc2cccc(NC(=O)Nc3ccc(C)nc3)c2F)CC1 [Omecamtiv mecarbil] ; what viability inhibition value has been reported?
Result: -10

Query: Suppose we examine the compound Nc1ccc(-c2ccc3ncc4ccc(=O)n(-c5cccc(C(F)(F)F)c5)c4c3c2)cn1 [Torin 2] ; what viability inhibition value has been reported?
Result: -2.56

Query: Suppose we examine the compound COC(=O)Nc1ccc(-c2nc(N3CCOCC3)c3cnn(C4CCN(C(=O)OC)CC4)c3n2)cc1 [WYE354] ; what viability inhibition value has been reported?
Result: 2.45

Query: Suppose we examine the compound CC(C)(Sc1cc(C(C)(C)C)c(O)c(C(C)(C)C)c1)Sc1cc(C(C)(C)C)c(O)c(C(C)(C)C)c1 [Probucol] ; what viability inhibition value has been reported?
Result: -5.9

Query: Suppose we examine the compound Cc1nc(Nc2cnn(C3CCNCC3)c2)nc2c1N(C)C(=O)c1cc3ccccc3cc1N2C [HTH-01-015] ; what viability inhibition value has been reported?
Result: -1.49

Continuing:
Query: Suppose we examine the compound O=c1oc2c(O)c(O)cc3c(=O)oc4c(O)c(O)cc1c4c23 [Ellagic acid] ; what viability inhibition value has been reported?
Result: -9.03

Query: Suppose we examine the compound CCn1c(=O)c(-c2ccn[nH]2)cc2c(C)nc(N)nc21 [Voxtalisib] ; what viability inhibition value has been reported?
Result: 5.96

Query: Suppose we examine the compound Cc1c(CN2CCN(C(=O)[C@H](C)O)CC2)sc2c(N3CCOCC3)nc(-c3cnc(N)nc3)nc12 [Apitolisib] ; what viability inhibition value has been reported?
Result: -11.5

Query: Suppose we examine the compound N#C/C(=C\c1cn(-c2ccccc2)c2ccccc12)C(=O)O [UK5099] ; what viability inhibition value has been reported?
Result: 12.9

Query: Suppose we examine the compound "CN1CCN(C(=O)/C=C/c2ccc([N+](=O)[O-])o2)CC1" ; what viability inhibition value has been reported?
Result: -10.2

Query: Suppose we examine the compound CC(=O)N=c1sc(S(N)(=O)=O)nn1C [Methazolamide] ; what viability inhibition value has been reported?
Result: -8.89

Query: Suppose we examine the compound O=C(c1ccc(NS(=O)(=O)c2cccc3cccnc23)cc1)N1CCN(CC2CC2)CC1 [Mitapivat] ; what viability inhibition value has been reported?
Result: 1.32

----------
Below, each entry is listed alongside its reported viability inhibition.
# Tested on: HCT116
# Assay overview: viability inhibition vs untreated; higher = more cytotoxic
# Test context: genotype: MTA1-KO; 16 nM; 72 h
Structures can show the parent of a compound that is named as a salt.

Query: Suppose we examine the compound COCC1(CO)C(=O)C2CCN1CC2 (stereo unspecified) ; what viability inhibition value has been reported?
Result: 7.04%

Continuing:
Query: Suppose we examine the compound CC(=O)c1ccc2c(c1)c1cc(C(C)=O)ccc1n2CCNC(C)C [CBL0137 hydrochloride] ; what viability inhibition value has been reported?
Result: -9.26%

Query: Suppose we examine the compound CC1=NS(=O)(=O)c2cc(Cl)ccc2N1 [Diazoxide] ; what viability inhibition value has been reported?
Result: 7.55%

----------
Below, each entry is listed alongside its reported viability inhibition.
# Tested on: HCT116
# Assay overview: viability inhibition vs untreated; higher = more cytotoxic
# Test context: genotype: MTA1-KO; 16 nM; 72 h

Check out these entries, answers already filled in.
Query: Can you look up viability inhibition on HCT116 for "N#Cc1ccnc(N2C(=O)CC[C@H]2C(=O)N(c2cncc(F)c2)[C@H](C(=O)NC2CC(F)(F)C2)c2ccccc2Cl)c1" ?
Result: 3.53%

Query: Can you look up viability inhibition on HCT116 for "O=c1c(O)c(-c2ccc(O)cc2)oc2cc(O)cc(O)c12" ?
Result: 9.79%

Query: Can you look up viability inhibition on HCT116 for NS(=O)(=O)c1cc2c(cc1C(F)(F)F)NC(Cc1ccccc1)NS2(=O)=O (centres undefined) [Bendroflumethiazide] ?
Result: -4.82%

Continuing:
Query: Can you look up viability inhibition on HCT116 for "COc1ccc([C@@H]2OC[C@H]3[C@@H]2CO[C@@H]3c2ccc(O[C@@H]3O[C@H](CO)[C@@H](O)[C@H](O)[C@H]3O)c(OC)c2)cc1OC" ?
Result: 5.1%

Query: Can you look up viability inhibition on HCT116 for "N#CNC(=NCCCCCCOc1ccc(Cl)cc1)Nc1ccncc1" ?
Result: -0.922%

Query: Can you look up viability inhibition on HCT116 for Nc1ccc(S(N)(=O)=O)cc1 [Sulfanilamide] ?
Result: -4.56%

Query: Can you look up viability inhibition on HCT116 for "CN(C)C1CCN(C(=O)c2ccc(NC(=O)Nc3ccc(-c4nc(N5CCOCC5)nc(N5CCOCC5)n4)cc3)cc2)CC1" ?
Result: -5.92%

Query: Can you look up viability inhibition on HCT116 for "C/C=C/c1cc(OC)c(OC)cc1OC" ?
Result: -3.55%

Query: Can you look up viability inhibition on HCT116 for "N#Cc1c(O)c2c(-c3ccc(-c4ccccc4O)cc3)csc2[nH]c1=O" ?
Result: 7.25%

Query: Can you look up viability inhibition on HCT116 for "O=C(NCCCNc1nc(Nc2cccc(NC(=O)N3CCCC3)c2)ncc1I)c1cccs1" ?
Result: -13.8%

----------
# Test system: HCT116
# Assay overview: viability inhibition vs untreated; higher = more cytotoxic
# Test context: genotype: MTA1-KO; 16 nM; 72 h
Structures can show the parent of a compound that is named as a salt.
Experimental readout: viability inhibition (%)
# value in %; strip the unit string

Check out these entries, answers already filled in.
Query: Suppose we examine the compound "NS(=O)(=O)c1ccc(NC(=O)Nc2ccc(F)cc2)cc1" ; what viability inhibition value has been reported?
Result: -21.7

Query: Suppose we examine the compound COc1ccc2[nH]c([S@@+]([O-])Cc3ncc(C)c(OC)c3C)nc2c1 [Esomeprazole Magnesium] ; what viability inhibition value has been reported?
Result: 2.7

Query: Suppose we examine the compound "O=C(Cc1ccccc1)Nc1nnc(CCSCCc2nnc(NC(=O)Cc3ccccc3)s2)s1" ; what viability inhibition value has been reported?
Result: -12.8

Query: Suppose we examine the compound CC(C)n1c(/C=C/[C@H](O)C[C@H](O)CC(=O)O)c(-c2ccc(F)cc2)c2ccccc21 (racemic) [Fluvastatin sodium salt] ; what viability inhibition value has been reported?
Result: 12.1

Query: Suppose we examine the compound "N#CC(C#N)=NNc1ccc(OC(F)(F)F)cc1" ; what viability inhibition value has been reported?
Result: -7.63

Continuing:
Query: Suppose we examine the compound CC(=O)O[C@H]1C[C@H](O[C@H]2[C@@H](O)C[C@H](O[C@H]3[C@@H](O)C[C@H](O[C@H]4CC[C@@]5(C)[C@H](CC[C@@H]6[C@@H]5C[C@@H](O)[C@]5(C)[C@@H](C7=CC(=O)OC7)CC[C@]65O)C4)O[C@@H]3C)O[C@@H]2C)O[C@H](C)[C@H]1O[C@@H]1O[C@H](CO)[C@@H](O)[C@H](O)[C@H]1O [Lanatoside C] ; what viability inhibition value has been reported?
Result: 2.02

Query: Suppose we examine the compound "Nc1ncnc2c1c(-c1cnc3[nH]ccc3c1)nn2C1CCCC1" ; what viability inhibition value has been reported?
Result: 14.3

Query: Suppose we examine the compound "O=c1cc(-c2ccc(O)cc2)oc2cc(O)cc(O)c12" ; what viability inhibition value has been reported?
Result: -5.33

Query: Suppose we examine the compound "NS(=O)(=O)c1ccc(S(=O)(=O)Nc2cccc3c(Cl)c[nH]c23)cc1" ; what viability inhibition value has been reported?
Result: -0.89

Query: Suppose we examine the compound "C[C@]12CC[C@H](O)C[C@H]1CC[C@@H]1[C@@H]2CC[C@]2(C)[C@@](O)(c3ccoc3)CC[C@]12O" ; what viability inhibition value has been reported?
Result: 11.8

Query: Suppose we examine the compound Cc1c(CN2CCN(c3cccc(C(F)(F)F)c3)CC2)cc(-c2ccccc2)n1NC(=O)c1ccncc1 [Sudoterb free base] ; what viability inhibition value has been reported?
Result: -13.3

Query: Suppose we examine the compound "O=C(O)c1ccc(C=C2SC(=S)N(c3cccc(C(F)(F)F)c3)C2=O)cc1" ; what viability inhibition value has been reported?
Result: -5.28
